- Assay overview: Confirmatory qHTS for Inhibitors of ATXN expression; further: nearly all actives have a fitted effect of over 65% in size
- Condition details: ATXN2-luciferase reporter cells, luminescence, 24 h; series mostly up to 11.5 µM
In all, about 2,100 compounds went through this assay and about 940 (45%) were called active. Not shown: some 48% with an inconclusive outcome. The call rests on the fitted dose curve; in most records, active means well fitted inhibition curve with a large enough effect; inconclusive means small, poorly fitted or top-dose-only effect; inactive means no such curve, though single readings can be large or run the other way. The set was probably picked from earlier hits. This is one part of the list.
Pick one and only one: t (active), f (inactive)

[
  {
    "Compound": "CCCCOC(=O)/C=C\\C(=O)NC(N)=O",
    "Category label": "t"
  },
  {
    "Compound": "Cn1c(NCCN2CCCC2)nc2cc(-c3ccsc3)sc2c1=O",
    "Category label": "t"
  },
  {
    "Compound": "O=c1c2ccc(Cl)cc2nc(-c2cccc(C(F)(F)F)c2)n1O",
    "Category label": "t"
  },
  {
    "Compound": "COc1ccccc1-c1ccc2c(c1)C(C)(Cc1cccc(F)c1)C(=O)N2 (centres undefined)",
    "Category label": "t"
  },
  {
    "Compound": "O=C(NCC1CC1)c1ccc2c(c1)S(=O)(=O)c1cc(Cl)ccc1C2=O",
    "Category label": "f"
  }
]

Assay outcome for `Cc1cccc(OCCCC(=O)Nc2nccs2)c1` : what was it?
t

Moving on to `CSc1nc(-c2ccc(Cl)cc2)nc(N)c1C#N`
t

Moving on to `CC(C)(C)NCC(=Cc1ccccc1)C(=O)c1ccccc1`
t

Moving on to `O=C(CNC(=O)c1ccccc1Br)N/N=C/c1cc(Br)ccc1O`
t

Moving on to CC1Cc2cc(-c3csc(NC(=O)Cc4cccs4)n3)ccc2N1S(C)(=O)=O (centres undefined)
t

Moving on to Oc1c(C(c2ccccn2)N2CCC(Cc3ccccc3)CC2)cc(Cl)c2cccnc12 (centres undefined)
t

Moving on to `C/C(=C\C(=O)c1ccc(Br)cc1)NNC(=O)c1ccc(O)cc1`
t

Moving on to `COc1cccc(/C=N/NC(=O)CSc2ccccc2C)c1O`
t

Moving on to `CCOc1cc(CNCCO)cc(Br)c1OCc1ccccc1`
t

Moving on to `CC(C)(C)c1ccc(Oc2ccc(N)cc2)cc1`
t

Moving on to `O=C(NC(Nc1nc2ccc([N+](=O)[O-])cc2s1)(C(F)(F)F)C(F)(F)F)c1ccccc1`
t

Moving on to `CCOC(=O)C1CCN(c2cc3c(cc2NC(=O)c2ccccc2OCC)n(C)c(=O)n3C)CC1`
t

Moving on to Oc1c(C(c2ccccn2)N2CCCCC2)cc(Cl)c2cccnc12 (centres undefined)
t

Moving on to Cc1cccc(NC2=Nc3ccccc3N3C2=Nc2c(c(C)nn2-c2ccccc2)C3c2ccc(O)c(O)c2)c1 (centres undefined)
t

Moving on to CC(OC(=O)c1cc(Br)ccc1O)C(=O)Nc1ccc(S(=O)(=O)N2CCCC2)cc1 (centres undefined)
t

Moving on to `O=C(N/N=C/c1cc(Cl)ccc1O)c1ccccc1Br`
t

Moving on to Cc1cc2oc3ccc(NCCC4CCCN4C)cc3c(=O)c2cc1C (centres undefined)
t

Moving on to `O=C(O)COc1ccc2oc3ccccc3c2c1`
f

Moving on to `Cc1ccc(C(=O)NCCN2C3=NC[C@@H](Cc4ccccc4)N3C[C@H]2Cc2ccc(O)cc2)cc1Br`
t

Moving on to `O=C(N/N=C\c1c(O)ccc2ccccc12)c1ccc(S(=O)(=O)N2CCCCC2)cc1`
t

Moving on to `O=C(N/N=C\c1cc(Cl)ccc1O)c1ccc(S(=O)(=O)N2CCCCC2)cc1`
t

Moving on to `COc1ccc(-c2oc3c(OC)c(OC)c(OC)c(O)c3c(=O)c2OC)cc1OC`
t

Moving on to `O=C(CSc1ccc2ccccc2c1)Nc1nc2ccccc2[nH]1`
t

Moving on to NS(=O)(=O)c1ccc(N2N=C(c3ccccc3)CC2c2ccc(F)cc2)cc1 (centres undefined)
f

====

- Assay overview: Confirmatory qHTS for Inhibitors of ATXN expression; further: nearly all actives have a fitted effect of over 65% in size
- Condition details: ATXN2-luciferase reporter cells, luminescence, 24 h; series mostly up to 11.5 µM
The campaign covered roughly 2,100 compounds. About 940 (45%) were called active. About 48% were inconclusive and are not listed. Calls come from the whole dose curve; as a rule, active = well fitted inhibition curve with a large enough effect; inconclusive = small, poorly fitted or top-dose-only effect; inactive = no such curve, though single readings can be large or run the other way. The set was probably picked from earlier hits. Some of the results follow.
Pick one and only one: T (active), F (inactive)

Reference set (5 entries):
[
  {
    "Compound": "Cc1n(Cc2ccccc2)c2ccccc2[n+]1Cc1ccccc1",
    "Category label": "F"
  },
  {
    "Compound": "CCN(CC)c1ccc(/C=C/c2cccc[n+]2C)c(OC)c1",
    "Category label": "T"
  },
  {
    "Compound": "COc1nn(-c2ccccc2)c(=O)c(Cl)c1Cl",
    "Category label": "T"
  },
  {
    "Compound": "CCN(CC)CCNC(=O)c1ccc(NC(=O)Cc2cccc3ccccc23)cc1",
    "Category label": "T"
  },
  {
    "Compound": "COc1ccc(-c2csc(N(CCCN3CCOCC3)C(=O)c3ccco3)n2)cc1",
    "Category label": "T"
  }
]

Assay outcome for CCc1cc(-c2nnn(CCC3COCCO3)c2CC)ccc1-c1cn(CCc2c[nH]c3ccccc23)nn1 (stereo not drawn) : what was it?
T

Moving on to `COc1ccc(-c2csc(N(CCCN(C)C)C(=O)c3ccccc3Cl)n2)cc1`
T

Moving on to `O=C(Nc1ccc2c(c1)CCC2)C1CCN(c2c3c(nc4ncnn24)CCC3)CC1`
T

Moving on to `CSc1nc(C)cc(OCC(=O)N/N=C/c2ccccc2O)n1`
T

Moving on to CCCC(=O)NC(c1ccccc1)c1ccc2cccnc2c1O (stereo not drawn)
T

Moving on to `S=C(Nc1ccccc1)Nc1ccc(OCc2ccc(Cl)cc2Cl)cc1`
T

Moving on to `Cn1cccc1/C=N/N1CCN(Cc2ccccc2Cl)CC1`
F

====

- Assay overview: Confirmatory qHTS for Inhibitors of ATXN expression; further: nearly all actives have a fitted effect of over 65% in size
- Condition details: ATXN2-luciferase reporter cells, luminescence, 24 h; series mostly up to 11.5 µM
Out of some 2,100 compounds screened, about 940 (45%) were called active. Not shown: some 48% with an inconclusive outcome. Calls come from the whole dose curve; as a rule, active = well fitted inhibition curve with a large enough effect; inconclusive = small, poorly fitted or top-dose-only effect; inactive = no such curve, though single readings can be large or run the other way. So high a share suggests a set chosen from earlier hits. Some of the results follow.
Pick one and only one: 1 for active, 0 for inactive

Reference set (5 entries):
[
  {
    "Molecule": "N#CCc1nc2ccccc2c(=O)[nH]1",
    "Category label": 0
  },
  {
    "Molecule": "Cc1cc(C(=O)N/N=C/c2cc(Br)cc(Br)c2OC(=O)c2cccc(F)c2)n[nH]1",
    "Category label": 1
  },
  {
    "Molecule": "Cc1ccc(-c2cc(C(=O)N/N=C/c3ccccc3O)n[nH]2)o1",
    "Category label": 1
  },
  {
    "Molecule": "CCOc1ccccc1NC(=O)CCCc1nc2ccccc2c(=O)[nH]1",
    "Category label": 1
  },
  {
    "Molecule": "O=C(N/N=C(\\c1ccccc1)c1ccccn1)c1ccccc1Cl",
    "Category label": 1
  }
]

Assay outcome for `CCCCOc1ccc(C(=O)NNC(=O)c2cnccn2)cc1OC` : what was it?
1

Moving on to `CCOC(=O)c1ccc(NC(=O)c2nc[nH]c2C(=O)N[C@H](C)c2ccccc2)cc1`
0

Moving on to `CCc1c2c(nc3ccc(OC(=O)N4CCC(N5CCCCC5)CC4)cc13)-c1cc3c(c(=O)n1C2)COC(=O)[C@]3(O)CC`
1

Moving on to `CC(C)(CO)NCc1c(OCc2ccc(Cl)cc2)ccc2ccccc12`
1

Moving on to `CCC(CC)C(=O)c1c[nH]c(C(=O)NCc2ccccn2)c1`
0

Moving on to `Cc1ccc(C(=O)N/C(=C/c2ccc(-c3ccc([N+](=O)[O-])cc3)o2)C(=O)NCCCN(C)C)cc1`
1

Moving on to `COc1cc(C(=O)N/N=C(\c2ccccc2)c2ccccn2)cc(OC)c1OC`
1

Moving on to `COc1cccc(/C=N/NC(=O)c2ccc(=O)n(C)c2)c1O`
1

Moving on to `COC(=O)C1=C(C)N(Cc2ccccc2)C(=NCCc2cccnc2)N[C@H]1c1ccc(Br)cc1`
1

Moving on to `Cc1cc(Nc2cccc([N+](=O)[O-])c2)n2c(nc3ccccc32)c1C#N`
1

Moving on to `Cc1cc(C)cc(NC(=O)c2ccc([N+](=O)[O-])o2)c1`
1

Moving on to `CCN(CC)c1ccc(/C=N/NC(=O)c2cccc(S(=O)(=O)N3CCOCC3)c2)c(O)c1`
1

Moving on to CC(C(=O)c1ccc(-c2ccccc2)cc1)[n+]1cccc(NC(=O)c2ccccc2)c1 (configuration not stated)
0

Moving on to `COc1cc(Br)cc(/C=N/NC(=O)Cc2ccc(C(F)(F)F)cc2[N+](=O)[O-])c1O`
1

Moving on to `CCN1CCN(CCCNC(=O)c2ccc(/C=C3/Sc4ccccc4N(Cc4ccccc4F)C3=O)cc2)CC1`
1

Moving on to `COc1cccc(/C=N/NC(=O)Cn2nc(C)c([N+](=O)[O-])c2C)c1O`
1

Moving on to O=C(NCC1CCCO1)c1cccc(Oc2ccc([N+](=O)[O-])cc2Cl)c1 (configuration not stated)
0

Moving on to `Cc1ccc(-c2nc3cc(Br)cnc3nc2-c2ccc(C)cc2)cc1`
0

Moving on to `COc1cc(C(=O)NC(=S)NNC(=O)c2cnccn2)cc(OC)c1OC`
1

Moving on to `C=CS(=O)(=O)c1c2cc(OC)ccc2nc2ccc(OC)cc12`
1
